All figures here come from ChEMBL document CHEMBL3124891.

Experiment: Binding affinity to New Zealand White rabbit factor 7a assessed as release of p-nitroaniline after 10 to 120 mins by spectrophotometric analysis
Design: species or system Oryctolagus cuniculus
pKi: −log10 of the molar value.
Recorded Endpoint: pKi

[
  {
    "Compound": "CC(C)CC(=O)Nc1cc(-c2ccc(C(N)=O)cc2C(=O)O)cc(C2CC(C)(c3ccccc3)c3cc(C(=N)N)ccc3N2)c1 (single isomer, unassigned; enantiomer 2)",
    "Quantitative Readout": 6.70
  }
]

###

pKi: −log10 of the molar value.
Consider the following pKi values measured on Coagulation factor X (Homo sapiens).
Sequence (P00742 41-179 limits assumed): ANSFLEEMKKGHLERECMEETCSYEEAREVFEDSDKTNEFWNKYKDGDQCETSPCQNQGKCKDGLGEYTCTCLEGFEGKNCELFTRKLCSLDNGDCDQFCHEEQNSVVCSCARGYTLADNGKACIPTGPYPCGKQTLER
Sequence (P00742 235-488 limits assumed): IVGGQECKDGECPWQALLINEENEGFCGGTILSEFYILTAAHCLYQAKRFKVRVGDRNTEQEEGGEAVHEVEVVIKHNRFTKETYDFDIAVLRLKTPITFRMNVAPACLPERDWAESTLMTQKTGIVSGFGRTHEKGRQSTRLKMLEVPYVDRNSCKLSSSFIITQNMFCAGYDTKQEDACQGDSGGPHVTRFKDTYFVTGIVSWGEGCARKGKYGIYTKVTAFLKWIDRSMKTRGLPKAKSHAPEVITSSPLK

[
  {
    "Compound": "C[C@]1(c2ccccc2)C[C@@H](c2cccc(-c3ccc(N)cc3C(=O)O)c2)Nc2ccc(C(=N)N)cc21 (racemic)",
    "pKi": 5.40
  },
  {
    "Compound": "C[C@]1(c2ccccc2)C[C@@H](c2cc(NC(=O)C3CC3)cc(-c3ccc(C(N)=O)cc3C(=O)O)c2)Nc2ccc(C(=N)N)cc21 (racemic)",
    "pKi": 6.06
  },
  {
    "Compound": "CCC(=O)Nc1cc(-c2ccc(C(N)=O)cc2C(=O)O)cc([C@@H]2C[C@](C)(c3ccccc3)c3cc(C(=N)N)ccc3N2)c1 (racemic)",
    "pKi": 5.83
  },
  {
    "Compound": "CC(=O)Nc1ccc(-c2cccc([C@@H]3C[C@](C)(c4ccccc4)c4cc(C(=N)N)ccc4N3)c2)c(C(=O)O)c1 (racemic)",
    "pKi": 5.24
  }
]
